Data origin: patent US9464064B2

Target entity: HCV NS3 helicase NS3h_1b(con1) (Hepatitis C virus genotype 1b)
Construct: truncated C-terminally His-tagged NS3 proteins lacking the N-terminal protease, called NS3h; His-tag (C); made in house
Sequence (Q9WMX2 1192-1657): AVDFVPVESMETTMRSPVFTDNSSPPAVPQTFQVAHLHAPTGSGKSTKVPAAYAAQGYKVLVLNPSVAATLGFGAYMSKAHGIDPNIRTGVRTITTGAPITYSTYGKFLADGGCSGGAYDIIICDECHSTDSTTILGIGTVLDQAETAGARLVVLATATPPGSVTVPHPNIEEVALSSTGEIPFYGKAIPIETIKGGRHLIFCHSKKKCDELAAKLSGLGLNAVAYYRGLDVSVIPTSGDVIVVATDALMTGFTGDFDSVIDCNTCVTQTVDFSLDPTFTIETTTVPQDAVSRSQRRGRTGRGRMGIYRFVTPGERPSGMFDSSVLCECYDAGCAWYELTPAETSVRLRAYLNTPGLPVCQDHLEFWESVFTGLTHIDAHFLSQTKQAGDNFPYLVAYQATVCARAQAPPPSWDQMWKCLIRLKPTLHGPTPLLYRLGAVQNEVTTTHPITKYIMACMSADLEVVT
Experiment summary: biochemical
Type: biochemical, hepatitis C virus genotype 1b(con1)
Assay context: Helicase IC50, MBHA, DNA unwinding; mean ± SD of three titrations
Readout: IC50
Entry format: amount then unit.

> print(dat)
                         structure.notation  observed
1  COc1ccc(C(=O)Nc2ccc(-c3nc4ccc(-c5nc6ccc(C)c(S(=O)(=O)O)c6s5)cc4s3)cc2)cc1     10 µM

Query string: Give the reported value of IC50 for this record: `Cc1ccc2nc(-c3ccc4nc(-c5ccc(NC(=O)c6ccc(Cl)cc6)cc5)sc4c3)sc2c1S(=O)(=O)O`
Result string: 3.4 µM

###

Target entity: HCV NS3 helicase NS3h_1b(con1) (Hepatitis C virus genotype 1b)
Construct: truncated C-terminally His-tagged NS3 proteins lacking the N-terminal protease, called NS3h; His-tag (C); made in house
Experiment summary: MBHA screen of NCI mechanistic set library at 20 μM (percent inhibition, compound interference)
Assay type: biochemical
Assay context: compounds at 20 μM; assay interference calculated with Equation 2 (fluorescence vs DMSO-only controls before ATP)
Assign criterion met whenever Int.* (Ratio) (Interference) does not fall below 0.9 Ratio; assign criterion not met whenever it does.

Compound	Assigned category
COc1ccc(/C=C\c2cc(OC)c(OC)c(OC)c2)cc1OP(=O)(O)O.N	criterion met
N=C1C=C(N)C(=O)c2[nH]c(=O)ccc21	criterion met
CC1(O)C=CC(=O)C=C1	criterion met
CCOC(=O)C1=C(O)CSC1=Nc1ccc(N=C2SCC(O)=C2C(=O)OCC)cc1	criterion met
COc1cc2c3c(c1OC)-c1cc4c(cc1CC3(C#N)N(C(=O)c1ccccc1)CC2)OCO4 (centres unmarked)	criterion not met

Query string: Entry `CC[C@@]1(O)C[C@H](O[C@H]2C[C@H](N(C)C)[C@H](O[C@H]3C[C@H](O)[C@H](O[C@H]4C[C@H](O)[C@H](O)[C@H](C)O4)[C@H](C)O3)[C@H](C)O2)c2c(cc3c(c2O)C(=O)c2c(O)ccc(O)c2C3=O)[C@H]1C(=O)OC` : is its Int.* (Ratio) (Interference) no less than 0.9 Ratio?
Result string: criterion not met

Query string: Entry `O=C1C=C(Nc2ccccc2C(=O)CC(=O)C(=O)Nc2ccc(Cl)cc2)c2ccccc2C1=O` : is its Int.* (Ratio) (Interference) no less than 0.9 Ratio?
Result string: criterion met

Query string: Entry CC(C)(O)CCC(O)C(C)(O)C1CCC2(O)C3=CC(=O)C4(O)CC(O)C(O)CC4(C)C3CCC12C.CC(C)(O)CCC(O)C(C)(O)C1CCC2(O)C3=CC(=O)C4CC(O)C(O)CC4(C)C3CCC12C (centres unmarked) : is its Int.* (Ratio) (Interference) no less than 0.9 Ratio?
Result string: criterion met

###

Target entity: E. coli SSB-Cy5-dT15 complex (Escherichia coli, UniProt P0AGE0)
Construct: purchased Promega
Sequence (P0AGE0 2-178, one chain of several): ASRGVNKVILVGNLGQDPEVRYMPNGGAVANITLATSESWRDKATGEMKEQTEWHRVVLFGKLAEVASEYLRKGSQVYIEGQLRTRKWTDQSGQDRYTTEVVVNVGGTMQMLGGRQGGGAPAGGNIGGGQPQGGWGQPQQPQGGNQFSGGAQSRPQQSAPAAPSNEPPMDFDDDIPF
Experiment summary: Escherichia coli SSB Cy5-dT15 binding assay (fluorescence polarization)
Assay context: read-out: SSB EC50
Readout: pEC50
# log scale: pEC50 equals minus log10 of the concentration in mol/L

Check out these entries, answers already filled in.
> print(dat)
                                   molecule  observed
1  COc1ccc(S(=O)(=O)Nc2ccc(-c3nc4ccc(-c5nc6ccc(C)c(S(=O)(=O)O)c6s5)cc4s3)cc2)cc1 [Compound 29]      5.00
2  Cc1ccc2nc(-c3ccc4nc(-c5ccc(NC(=O)c6cccc(C(F)(F)F)c6F)cc5)sc4c3)sc2c1S(=O)(=O)O [Compound 22]      4.15
3  Cc1ccc2nc(-c3ccc4nc(-c5ccc(NC(=O)c6ccc(F)cc6)cc5)sc4c3)sc2c1S(=O)(=O)O.N [Compound 7]      4.85
4  Cc1ccc2nc(-c3ccc4nc(-c5ccc(NC(=O)c6ccc(C(C)(C)C)cc6)cc5)sc4c3)sc2c1S(=O)(=O)O [Compound 13]      4.49
5  Cc1ccc2nc(-c3ccc4nc(-c5ccc(NC(=O)c6ccc(C(F)(F)F)cc6)cc5)sc4c3)sc2c1S(=O)(=O)O [Compound 12]      5.40

Query string: Give the reported value of pEC50 for this record: CC(=O)Nc1ccc(-c2nc3ccc(-c4nc5ccc(C)c(S(=O)(=O)O)c5s4)cc3s2)cc1 [Compound 30]
Result string: 4.77

Query string: Give the reported value of pEC50 for this record: Cc1ccc2nc(-c3ccc4nc(-c5ccc(NC(=O)c6ccc(C(F)(F)F)c(F)c6)cc5)sc4c3)sc2c1S(=O)(=O)O [Compound 23]
Result string: 5.00
